# targetEntity: T1, soluble αVβ6 headpiece, disulfide-linked (αV headpiece residues 1-594 with M400C); β6 headpiece residues 1-474 … (human, UniProt P06756 31-624; P18564 18-491, Interchain disulfide between αV Cys-400 and β6 Cys-270.)
# T1 construct: The 3C site, ACID/BASE coiled-coils, Strep-II tag and His tags were cut off with 3C protease; The two chains are linked by the introduced disulfide bond; also called modified integrin αVβ6 headpiece dimer; full headpiece
# T1 sequence (P06756 31-624 M430C limits assumed, chain 1 of 2): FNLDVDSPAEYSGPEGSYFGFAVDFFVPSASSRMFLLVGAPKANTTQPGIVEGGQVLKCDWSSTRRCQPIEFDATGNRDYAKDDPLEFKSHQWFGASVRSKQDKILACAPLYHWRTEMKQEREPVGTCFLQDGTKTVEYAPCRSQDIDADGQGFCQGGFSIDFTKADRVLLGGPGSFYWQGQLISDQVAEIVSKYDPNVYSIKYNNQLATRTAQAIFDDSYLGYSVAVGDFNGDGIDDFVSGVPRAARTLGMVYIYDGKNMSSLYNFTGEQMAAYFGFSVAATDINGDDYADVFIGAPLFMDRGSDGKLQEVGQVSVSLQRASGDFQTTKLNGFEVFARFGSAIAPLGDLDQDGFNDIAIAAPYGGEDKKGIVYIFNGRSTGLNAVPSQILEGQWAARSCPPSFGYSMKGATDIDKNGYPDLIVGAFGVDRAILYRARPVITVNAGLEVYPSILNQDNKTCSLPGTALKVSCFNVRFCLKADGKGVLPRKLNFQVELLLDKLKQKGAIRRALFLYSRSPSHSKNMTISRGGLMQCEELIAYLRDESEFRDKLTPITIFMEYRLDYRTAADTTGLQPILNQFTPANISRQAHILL
# T1 sequence (P18564 18-491 I287C limits assumed, chain 2 of 2): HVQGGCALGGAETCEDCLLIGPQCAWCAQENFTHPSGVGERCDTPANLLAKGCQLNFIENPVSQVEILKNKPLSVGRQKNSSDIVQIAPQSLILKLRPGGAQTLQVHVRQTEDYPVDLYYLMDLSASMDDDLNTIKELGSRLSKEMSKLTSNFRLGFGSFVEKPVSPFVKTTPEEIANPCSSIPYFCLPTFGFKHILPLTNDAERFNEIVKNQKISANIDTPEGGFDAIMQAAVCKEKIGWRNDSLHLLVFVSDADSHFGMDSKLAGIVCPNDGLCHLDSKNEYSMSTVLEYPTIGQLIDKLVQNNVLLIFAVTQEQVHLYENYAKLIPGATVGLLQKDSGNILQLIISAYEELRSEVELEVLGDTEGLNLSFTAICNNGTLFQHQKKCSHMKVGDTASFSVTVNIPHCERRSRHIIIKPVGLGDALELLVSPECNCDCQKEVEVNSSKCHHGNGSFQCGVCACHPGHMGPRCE
# testProtocol: fluorescence anisotropy, saturation binding, 1 mM Mg2+/Ca2+
Ends that are not written are not given here. * marks the point of attachment. FITC = O=C1OC2(c3ccc(O)cc3Oc3cc(O)ccc32)c2ccc(NC(=S)*)cc21

| binder | Kd, nM |
| --- | --- |
| {FITC}-GRGDLGRL (also called the probe) [FITC-GRGDLGRL (FITC-pro-TGF-β3 peptide, fluorescence probe)] | 100 |
